# System: chinese hamster ovary cells (CHO)
# ASSAY: CHO toxicity assay (CCK-8 cell viability)
# Type: cell-based
# CONDITION_DETAILS: 50% growth inhibition vs untreated control, 24 hours
EXPERIMENTAL_READOUT: CHO cell TD 50 (µg/mL)
Your answer is read as µg/mL, so omit the unit and give the number.

Below: 2 compounds and their reported CHO cell TD 50.
COMPOUND: COC(=O)[C@H](C[S][Au]=[P](C)(c1ccccc1)c1ccccc1)NC(C)=O [Compound 10]
EXPERIMENTAL_READOUT: CHO cell TD 50
RESULT: 1.2
//
COMPOUND: CC[P](CC)(CC)=[Au][S][C@H]1CC[C@H](O)CC1 [Compound 6]
EXPERIMENTAL_READOUT: CHO cell TD 50
RESULT: 1.5

Recall the recorded CHO cell TD 50 for CC[P](CC)(CC)=[Au][S]C1CCN(C(=O)OC(C)(C)C)CC1 [Compound 2] with chinese hamster ovary cells (CHO) and state it.
0.7

Reference source for all entries: patent US20170204123A1
